test system: Telomerase reverse transcriptase (Homo sapiens)
protocol text: Inhibition of telomerase in human HepG2 cells at 4 uM after 1 day by TRAP-ELISA method
Format: cell-based
quantity measured: inhibition (%)

1) COc1ccc2ccc(=O)oc2c1C1=NNC(c2ccc(C(F)(F)F)cc2)C1 (stereo unspecified) :: 29.2
2) CN[C@@H]1C[C@H]2O[C@@](C)([C@@H]1OC)n1c3ccccc3c3c4c(c5c6ccccc6n2c5c31)C(=O)NC4 :: 30.1
3) COc1ccc2ccc(=O)oc2c1C1=NNC(c2cccs2)C1 (stereo unspecified) :: 31
4) COc1ccc2ccc(=O)oc2c1C1=NN(C(N)=O)C(c2ccc(SC)cc2)C1 (stereo unspecified) :: 25.3
5) COc1ccc2ccc(=O)oc2c1C1=NNC(c2ccc(SC)cc2)C1 (stereo unspecified) :: 32.3
6) COc1ccc2ccc(=O)oc2c1C1=NN(c2ccccc2)C(c2cccs2)C1 (stereo unspecified) :: 28
